measurement protocol: In vivo tissue distribution of radioactivity after intravenous administration
Set-up: species or system Sprague Dawley rats
condition notes: cerebellum, iv; rat, i.v., 2 min; read-out: Cerebell (C), Mean % Injected Dose/Gram
quantity: tissue uptake at 2 min (%ID/g)

- CC(C[18F])OC(=O)[C@H]1[C@@H](c2ccc(I)cc2)C[C@@H]2CC[C@H]1N2C (stereo partly shown) [[^18 F] FIPIT 8]: 0.76

---

measurement protocol: In vivo tissue distribution of radioactivity after intravenous administration
Design: species or system Sprague Dawley rats
condition notes: bone, iv; rat, i.v., 30 min; read-out: Bone, Mean % Injected Dose/Gram
quantity: tissue uptake at 0.5 h (%ID/g)

* CC(C[18F])OC(=O)[C@H]1[C@@H](c2ccc(I)cc2)C[C@@H]2CC[C@H]1N2C (stereo partly shown) [[^18 F] FIPIT 8] | 0.21

---

measurement protocol: In vivo tissue distribution of radioactivity after intravenous administration
Set-up: species or system Sprague Dawley rats
condition notes: blood, iv; rat, i.v., 120 min; read-out: Blood, Mean % Injected Dose/Gram
quantity: tissue uptake at 2 h (%ID/g)

- CC(C[18F])OC(=O)[C@H]1[C@@H](c2ccc(I)cc2)C[C@@H]2CC[C@H]1N2C (stereo partly shown) [[^18 F] FIPIT 8]: 0.04

---

measurement protocol: In vivo tissue distribution of radioactivity after intravenous administration
Set-up: species or system Sprague Dawley rats
condition notes: lung, iv; rat, i.v., 120 min; read-out: Lung, Mean % Injected Dose/Gram
quantity: tissue uptake at 2 h (%ID/g)

- CC(C[18F])OC(=O)[C@H]1[C@@H](c2ccc(I)cc2)C[C@@H]2CC[C@H]1N2C (stereo partly shown) [[^18 F] FIPIT 8]: 0.46

---

measurement protocol: In vivo tissue distribution of radioactivity after intravenous administration
Set-up: species or system Sprague Dawley rats
condition notes: kidney, iv; rat, i.v., 120 min; read-out: Kidney, Mean % Injected Dose/Gram
quantity: tissue uptake at 2 h (%ID/g)

* CC(C[18F])OC(=O)[C@H]1[C@@H](c2ccc(I)cc2)C[C@@H]2CC[C@H]1N2C (stereo partly shown) [[^18 F] FIPIT 8] | 0.3

---

measurement protocol: In vivo tissue distribution of radioactivity after intravenous administration
Design: species or system Sprague Dawley rats
condition notes: striatum, iv; rat, i.v., 60 min; read-out: Striatum (St), Mean % Injected Dose/Gram
quantity: tissue uptake at 1 h (%ID/g)

- CC(C[18F])OC(=O)[C@H]1[C@@H](c2ccc(I)cc2)C[C@@H]2CC[C@H]1N2C (stereo partly shown) [[^18 F] FIPIT 8]: 0.58
